Assignment: determine reported IC50 for the given sequences.
# target.or.test.system: HLA DRB4 *0101 (Homo sapiens, UniProt P01903+P13762, G164S)
# Sequence (P01903 26-254 limits assumed): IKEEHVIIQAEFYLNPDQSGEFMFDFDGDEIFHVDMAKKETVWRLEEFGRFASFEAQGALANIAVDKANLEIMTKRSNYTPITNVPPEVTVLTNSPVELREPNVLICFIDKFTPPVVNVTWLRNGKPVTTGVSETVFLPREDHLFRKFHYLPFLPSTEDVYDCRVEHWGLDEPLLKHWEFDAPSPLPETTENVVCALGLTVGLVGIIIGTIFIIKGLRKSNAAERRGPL
# Sequence (P13762 whole entry G164S): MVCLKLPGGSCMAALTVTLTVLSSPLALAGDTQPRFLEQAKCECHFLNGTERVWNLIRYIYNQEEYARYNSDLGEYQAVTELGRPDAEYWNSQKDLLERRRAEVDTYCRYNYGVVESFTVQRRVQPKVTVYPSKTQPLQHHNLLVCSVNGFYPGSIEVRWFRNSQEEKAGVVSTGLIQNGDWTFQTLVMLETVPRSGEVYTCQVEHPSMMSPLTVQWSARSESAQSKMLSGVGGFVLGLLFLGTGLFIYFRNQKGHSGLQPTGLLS
# protocol.summary: IC50nM to purified HLA | DRB4 *0101
Where no end group is shown, it is not given here.
Numbers only; they are read as µM.

The recorded IC50 for AAAIFVAAWTLHAAA [SEQ ID NO: 69] is 0.084

The sequence AAANFVAANTLKAEA [SEQ ID NO: 62] showed IC50 equal to 0.964

According to the records, this sequence AAANFVAAYTLKAEA [SEQ ID NO: 60] displays IC50 of 0.718

IC50 reported for this sequence AAANFVAAWTLKAEA [SEQ ID NO: 59] : 0.221

Form: sequence = AAAIFVAAYTLHAAA [SEQ ID NO: 70] ; IC50 = 0.346

Documented IC50 of AAAQFVAAWTLKAAA [SEQ ID NO: 63] : 0.259

What the record says about AAANFVAANTLHAAA [SEQ ID NO: 54] : IC50 is 1.11

Reported IC50 ( AAAIFVAANTLHAAA [SEQ ID NO: 72] ) = 0.109

Consider AAANFVAAFTLHAAA [SEQ ID NO: 53] . Its measured IC50 is 0.111

get_value(item= AAANFVAANTLKADA [SEQ ID NO: 58] , readout=IC50) returns 6.32

Input AAAIFVAAFTLHAAA [SEQ ID NO: 71] . Output IC50: 0.117

The sequence identified as AAAIFVAAWTLKAAA [SEQ ID NO: 68] registered its IC50 at 0.124

Reported IC50 of AAAQFVAAFTLHAAA [SEQ ID NO: 66] : 0.097

Looking up AAANFVAAFTLKAEA [SEQ ID NO: 61] , I found its IC50 recorded as 0.492

The value of IC50 measured for the sequence AAAQFVAAYTLHAAA [SEQ ID NO: 65] turned out to be 0.428

---

# target.or.test.system: HLA DRB1 *1501 (Homo sapiens, UniProt P01903+P01911)
# protocol.summary: IC50nM to purified HLA | DRB1 *1501
# Protocol: Table printed on a drawing sheet, FIG. 1 (contd.) Head of the field: IC50nM to purified HLA | DRB1 *1501 First copying reader's note: Continued from the preceding sheet of FIG. 1; decimal commas are used, the analog names give the substituted residues and positions in PADRE, and some values are printed in italics or bold and some SEQ ID NOs bold and underlined without a legend on this sheet. Where the first naming reader finds the target: head: IC50nM to purified HLA | DRB1 *1501
Where no end group is shown, it is not given here.
Exercise: state measured log10 IC50 for each of the sequences provided.
Units before log transform: nM; reported quantity: IC50; transform: log10.

Tested on HLA DRB1 *1501 (Homo sapiens, UniProt P01903+P01911), the item AAADFVAANTLHAAA [SEQ ID NO: 44] showed log10 IC50 equal to 2.76

Record AAAHFVAAYTLKAEA [SEQ ID NO: 37] / HLA DRB1 *1501 (Homo sapiens, UniProt P01903+P01911), log10 IC50 recorded as 1.00

// log10 IC50 (HLA DRB1 *1501 (Homo sapiens, UniProt P01903+P01911)) for AAADFVAAWTLKAAA [SEQ ID NO: 40] = 1.81

Entry AAAEFVAAYTLHAAA [SEQ ID NO: 47] : log10 IC50 on HLA DRB1 *1501 (Homo sapiens, UniProt P01903+P01911) = 0.84

// log10 IC50 (HLA DRB1 *1501 (Homo sapiens, UniProt P01903+P01911)) for AAANFVAAWTLHAAA [SEQ ID NO: 51] = 1.00

So the reported log10 IC50 for AAADFVAAFTLHAAA [SEQ ID NO: 43] , on HLA DRB1 *1501 (Homo sapiens, UniProt P01903+P01911), turned out to be 1.99

Reported HLA DRB1 *1501 (Homo sapiens, UniProt P01903+P01911) log10 IC50 for item AAAHFVAANTLKADA [SEQ ID NO: 34] was 2.24

The measured log10 IC50 that AAAHFVAAFTLKADA [SEQ ID NO: 33] showed for HLA DRB1 *1501 (Homo sapiens, UniProt P01903+P01911) is 1.57

Param item: AAAEFVAANTLHAAA [SEQ ID NO: 49] ; param system: HLA DRB1 *1501 (Homo sapiens, UniProt P01903+P01911); output log10 IC50: 2.14

The recorded log10 IC50 with HLA DRB1 *1501 (Homo sapiens, UniProt P01903+P01911) for AAAHFVAAFTLHAAA [SEQ ID NO: 28] was 1.11

The sequence AAAEFVAAFTLHAAA [SEQ ID NO: 48] , when measured on HLA DRB1 *1501 (Homo sapiens, UniProt P01903+P01911), yielded log10 IC50 of 1.70

The measured log10 IC50 that AAADFVAAYTLHAAA [SEQ ID NO: 42] showed for HLA DRB1 *1501 (Homo sapiens, UniProt P01903+P01911) is 1.28

Field log10 IC50 (system: HLA DRB1 *1501 (Homo sapiens, UniProt P01903+P01911)) for entry AAAHFVAAWTLKAEA [SEQ ID NO: 36] = 1.30
